# Target desc: E. coli RNA polymerase σ^70 holoenzyme (Escherichia coli, UniProt P0A8T7+P0A8V2)
# Sequence (P0A8T7 whole entry): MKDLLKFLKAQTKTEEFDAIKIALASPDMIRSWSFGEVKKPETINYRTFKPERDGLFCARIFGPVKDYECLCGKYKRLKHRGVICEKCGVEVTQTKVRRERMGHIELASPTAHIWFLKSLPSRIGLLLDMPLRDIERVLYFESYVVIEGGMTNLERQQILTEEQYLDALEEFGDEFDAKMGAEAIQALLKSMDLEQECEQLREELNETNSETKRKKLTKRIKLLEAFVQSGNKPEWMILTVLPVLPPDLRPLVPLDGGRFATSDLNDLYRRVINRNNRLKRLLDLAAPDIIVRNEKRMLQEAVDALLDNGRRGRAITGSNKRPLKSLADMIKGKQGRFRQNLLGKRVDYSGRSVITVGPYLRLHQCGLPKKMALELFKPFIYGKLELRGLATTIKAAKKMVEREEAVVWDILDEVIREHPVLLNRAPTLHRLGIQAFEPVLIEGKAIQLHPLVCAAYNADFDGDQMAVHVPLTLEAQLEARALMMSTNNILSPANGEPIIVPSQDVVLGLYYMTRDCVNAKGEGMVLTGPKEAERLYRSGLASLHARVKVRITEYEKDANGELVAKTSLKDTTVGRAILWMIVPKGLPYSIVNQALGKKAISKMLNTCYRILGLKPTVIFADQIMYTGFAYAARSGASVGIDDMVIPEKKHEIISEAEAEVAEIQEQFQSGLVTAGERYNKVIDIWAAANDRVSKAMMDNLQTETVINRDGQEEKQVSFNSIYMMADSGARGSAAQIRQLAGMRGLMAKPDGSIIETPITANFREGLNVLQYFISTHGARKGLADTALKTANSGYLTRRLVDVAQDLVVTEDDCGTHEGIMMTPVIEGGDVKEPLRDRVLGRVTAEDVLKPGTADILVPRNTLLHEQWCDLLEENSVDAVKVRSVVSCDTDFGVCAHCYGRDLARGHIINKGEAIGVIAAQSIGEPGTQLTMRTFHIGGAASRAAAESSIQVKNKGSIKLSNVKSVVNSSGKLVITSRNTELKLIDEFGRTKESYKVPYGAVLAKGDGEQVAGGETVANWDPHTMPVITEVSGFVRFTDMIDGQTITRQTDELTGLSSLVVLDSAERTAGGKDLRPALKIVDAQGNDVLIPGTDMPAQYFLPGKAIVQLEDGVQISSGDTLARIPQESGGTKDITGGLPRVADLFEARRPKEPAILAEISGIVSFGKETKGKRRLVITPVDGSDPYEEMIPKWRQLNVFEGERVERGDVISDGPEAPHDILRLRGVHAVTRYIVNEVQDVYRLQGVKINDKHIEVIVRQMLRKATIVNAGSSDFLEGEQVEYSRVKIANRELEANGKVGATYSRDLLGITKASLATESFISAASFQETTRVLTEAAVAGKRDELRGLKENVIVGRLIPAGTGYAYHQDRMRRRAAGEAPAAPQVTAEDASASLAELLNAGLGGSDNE
# Sequence (P0A800 whole entry, further chain): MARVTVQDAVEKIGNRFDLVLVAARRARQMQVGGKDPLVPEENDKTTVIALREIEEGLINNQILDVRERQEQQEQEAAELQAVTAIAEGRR
# Sequence (P0A8V2 whole entry): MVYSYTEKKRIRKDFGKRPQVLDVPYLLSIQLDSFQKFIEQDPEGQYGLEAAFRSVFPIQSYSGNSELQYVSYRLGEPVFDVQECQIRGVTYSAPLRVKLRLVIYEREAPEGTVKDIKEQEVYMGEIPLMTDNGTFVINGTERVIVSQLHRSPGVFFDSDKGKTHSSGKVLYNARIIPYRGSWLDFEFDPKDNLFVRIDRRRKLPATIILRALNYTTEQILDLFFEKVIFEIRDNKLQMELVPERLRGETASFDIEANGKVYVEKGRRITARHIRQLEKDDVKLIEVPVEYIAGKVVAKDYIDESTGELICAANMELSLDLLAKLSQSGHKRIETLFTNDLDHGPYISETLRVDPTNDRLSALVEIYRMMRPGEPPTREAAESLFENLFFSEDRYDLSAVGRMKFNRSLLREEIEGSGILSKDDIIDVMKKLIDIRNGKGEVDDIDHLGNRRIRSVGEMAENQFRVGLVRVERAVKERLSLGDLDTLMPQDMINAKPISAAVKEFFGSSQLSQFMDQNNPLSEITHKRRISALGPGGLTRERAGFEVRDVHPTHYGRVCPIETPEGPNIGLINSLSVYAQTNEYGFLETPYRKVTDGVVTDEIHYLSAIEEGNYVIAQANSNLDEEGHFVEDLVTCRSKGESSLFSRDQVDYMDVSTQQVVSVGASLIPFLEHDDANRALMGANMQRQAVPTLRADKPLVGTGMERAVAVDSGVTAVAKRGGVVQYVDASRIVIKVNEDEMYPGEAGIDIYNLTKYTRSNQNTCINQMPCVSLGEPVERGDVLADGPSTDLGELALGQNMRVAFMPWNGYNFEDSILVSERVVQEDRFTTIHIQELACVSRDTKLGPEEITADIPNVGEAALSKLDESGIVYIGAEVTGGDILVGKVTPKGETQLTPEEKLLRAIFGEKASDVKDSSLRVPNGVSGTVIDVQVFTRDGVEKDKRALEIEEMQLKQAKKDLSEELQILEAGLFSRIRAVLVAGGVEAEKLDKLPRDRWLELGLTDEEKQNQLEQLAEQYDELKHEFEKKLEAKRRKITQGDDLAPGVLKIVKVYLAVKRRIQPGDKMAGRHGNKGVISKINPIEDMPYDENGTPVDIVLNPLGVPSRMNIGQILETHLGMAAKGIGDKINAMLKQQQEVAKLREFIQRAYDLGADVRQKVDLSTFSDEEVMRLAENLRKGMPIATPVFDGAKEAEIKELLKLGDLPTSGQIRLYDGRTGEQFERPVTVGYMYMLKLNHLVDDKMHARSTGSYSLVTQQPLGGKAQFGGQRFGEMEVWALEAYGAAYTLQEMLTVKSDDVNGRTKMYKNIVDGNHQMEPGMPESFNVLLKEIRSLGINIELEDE
# Sequence (P00579 whole entry, further chain): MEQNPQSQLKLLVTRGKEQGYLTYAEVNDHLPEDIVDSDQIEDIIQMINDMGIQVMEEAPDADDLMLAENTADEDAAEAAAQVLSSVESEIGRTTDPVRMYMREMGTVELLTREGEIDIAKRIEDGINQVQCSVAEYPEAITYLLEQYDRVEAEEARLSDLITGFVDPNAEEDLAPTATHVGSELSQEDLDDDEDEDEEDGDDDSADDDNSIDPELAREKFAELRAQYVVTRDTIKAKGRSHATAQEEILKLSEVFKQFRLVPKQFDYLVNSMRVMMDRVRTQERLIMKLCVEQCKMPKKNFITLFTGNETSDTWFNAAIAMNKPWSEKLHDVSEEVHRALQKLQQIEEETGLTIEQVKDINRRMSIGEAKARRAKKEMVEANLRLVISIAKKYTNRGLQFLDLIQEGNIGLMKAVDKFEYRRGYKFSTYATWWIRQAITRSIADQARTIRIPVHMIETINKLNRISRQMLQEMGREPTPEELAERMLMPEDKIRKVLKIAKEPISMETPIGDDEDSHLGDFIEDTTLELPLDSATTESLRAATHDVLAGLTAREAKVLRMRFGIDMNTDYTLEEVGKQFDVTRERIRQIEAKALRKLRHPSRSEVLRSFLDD
# Sequence (P0A7Z4 whole entry, further chain): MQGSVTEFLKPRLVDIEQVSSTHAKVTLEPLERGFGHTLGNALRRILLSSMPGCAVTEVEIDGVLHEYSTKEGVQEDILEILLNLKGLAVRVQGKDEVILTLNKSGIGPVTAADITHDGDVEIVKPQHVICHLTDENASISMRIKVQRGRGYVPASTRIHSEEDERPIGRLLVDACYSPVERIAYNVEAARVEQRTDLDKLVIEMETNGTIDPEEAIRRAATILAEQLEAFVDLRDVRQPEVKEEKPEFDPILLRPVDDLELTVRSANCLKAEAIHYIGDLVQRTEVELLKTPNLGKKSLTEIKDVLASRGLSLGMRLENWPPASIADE
# Assay details: Fluorescence-detected RNA polymerase assay, E. coli RNA polymerase
# Setup conditions: read-out: IC50 E. coli RNAP
Quantity measured: log10 of IC50 (log10 of the value in µM)
A value of 2 here means IC50 of 100 in µM, since values are log10.

-- ask Find log10 of IC50 (E. coli RNA polymerase σ^70 holoenzyme (Escherichia coli, UniProt P0A8T7+P0A8V2)) for the entry COC(=O)N/C=C/CCC(C)c1cc(O)c(C(=O)C(C)=Cc2ccc(CCC(C)(C)C)s2)c(=O)o1 (mixture of isomers)
-- reply -2.15

-- ask Find log10 of IC50 (E. coli RNA polymerase σ^70 holoenzyme (Escherichia coli, UniProt P0A8T7+P0A8V2)) for the entry COC(=O)N/C=C/CCC(C)c1cc(O)c(C(=O)C(C)=Cc2ccc(CCC(F)(F)F)s2)c(=O)o1 (mixture of isomers)
-- reply -1.70

-- ask Find log10 of IC50 (E. coli RNA polymerase σ^70 holoenzyme (Escherichia coli, UniProt P0A8T7+P0A8V2)) for the entry COCc1ccc(C=C(C)C(=O)c2c(O)cc(C(C)CC/C=C/NC(=O)OC)oc2=O)s1 (mixture of isomers)
-- reply -0.30

-- ask Find log10 of IC50 (E. coli RNA polymerase σ^70 holoenzyme (Escherichia coli, UniProt P0A8T7+P0A8V2)) for the entry CCCCc1ccc(C=C(C)C(=O)c2c(O)cc(C(C)CCCCNC(=O)OC)oc2=O)s1 (mixture of isomers)
-- reply 0.00

-- ask Find log10 of IC50 (E. coli RNA polymerase σ^70 holoenzyme (Escherichia coli, UniProt P0A8T7+P0A8V2)) for the entry COC(=O)N/C=C/CCC(C)c1cc(O)c(C(=O)C(C)=Cc2ccc(OCCC(F)(F)F)cc2)c(=O)o1 (mixture of isomers)
-- reply -1.10

-- ask Find log10 of IC50 (E. coli RNA polymerase σ^70 holoenzyme (Escherichia coli, UniProt P0A8T7+P0A8V2)) for the entry CCCCOc1cccc(C=C(C)C(=O)c2c(O)cc(C(C)CC/C=C/NC(=O)OC)oc2=O)c1 (mixture of isomers)
-- reply -1.52

-- ask Find log10 of IC50 (E. coli RNA polymerase σ^70 holoenzyme (Escherichia coli, UniProt P0A8T7+P0A8V2)) for the entry COC(=O)N/C=C/CCC(C)c1cc(O)c(C(=O)C(C)=Cc2cc(CCC(F)(F)F)cn2C)c(=O)o1 (mixture of isomers)
-- reply -1.00

###

Kindly supply the reported MIC values for the records listed here.
# Test system: Francisella tularensis SCHU4
# Assay details: microbe, parasite or virus in culture
# Format: cell-based
# Setup conditions: Francisella tularensis, SCHU4, read-out: MIC F. tularensis SCHU4
Quick reminder: number only, in µg/mL, skip the unit.

-- ask Which value of MIC has been reported for COC(=O)N/C=C/CCC(C)c1cc(O)c(C(=O)C(C)=Cc2ccc(CCC(C)(C)C)s2)c(=O)o1 (mixture of isomers) [APY56] in the records?
-- reply 6

-- ask Which value of MIC has been reported for COC(=O)N/C=C/CCC(C)c1cc(O)c(C(=O)C(C)=Cc2sc(CC(C)C)cc2Br)c(=O)o1 (mixture of isomers) [APY124] in the records?
-- reply 6

-- ask Which value of MIC has been reported for CCCCCCc1csc(C=C(C)C(=O)c2c(O)cc(C(C)CC/C=C/NC(=O)OC)oc2=O)c1 (mixture of isomers) [APY18] in the records?
-- reply 3
